- ASSAY_SUMMARY: ATG_BRE_CIS: Attagene CIS-FACTORIAL HepG2 Assay for human Bone Morphogenetic Protein (BMP) Response Element (BRE) (AID 2282933)
- COND: HepG2 BMP response element reporter, Attagene transcription factor profiling; actives raise or lower the signal
Calls of active or inactive are those of the source. How the source made its calls: active means hit-call score of the fitted dose curve at least 0.9, where 1 is the maximum; inactive means score below 0.9.
Outcomes: active, inactive

1. C#CCOC(=O)/C=C(C)/C=C/CC(C)CCCC(C)C (stereo not given) | inactive
2. N#Cc1ccccc1N | inactive
3. Oc1cccc(-c2ccccc2)c1 | active
4. O=S1OC[C@@H]2[C@H](CO1)[C@]1(Cl)C(Cl)=C(Cl)[C@@]2(Cl)C1(Cl)Cl (stereo not given in full) | inactive
5. Cc1cccc(OP(=O)(Oc2cccc(C)c2)Oc2cccc(C)c2)c1 | inactive
6. C#C[C@]1(O)CC[C@H]2[C@@H]3CCC4=CC(=O)CC[C@]4(C)[C@H]3CC[C@@]21C | inactive
7. CN(N=O)C(N)=O | inactive
8. O=C(O)COc1ccc(Cl)cc1 | inactive
9. C=CCOC(F)(C(F)(F)F)C(F)(F)F | inactive
10. CN(C)[C@@H]1C(=O)C(C(N)=O)=C(O)[C@@]2(O)C(=O)C3=C(O)c4c(O)ccc(Cl)c4[C@@](C)(O)[C@H]3C[C@@H]12 | active
11. COC(=O)c1cc(Oc2ccc(Cl)cc2Cl)ccc1[N+](=O)[O-] | active
12. CC(C)(C)c1ccccc1O | inactive
13. OC[C@@H](O)[C@H]1O[C@@H]2O[C@H](C(Cl)(Cl)Cl)O[C@@H]2[C@H]1O | inactive
14. Oc1ccc(Cc2ccc(O)cc2)cc1 | inactive
15. O=C(N[C@H]1CN2CCC1CC2)c1ccc2c(c1)OCCO2 | inactive

Cited source for all entries: PubChem BioAssay (EPA / NIEHS)
